Target: PFV-1 IN (integrase) (PFV-1, UniProt P14350 752-1143)
Test: SPR imaging; 4 nM IN, monophasic; 5 uM dsDNA spots; ka 3.7e6 M-1s-1, kd 1.8e-3 s-1; text prints 4.9e-9 M but the rates give 4.9e-10; 10 mM MgCl2; 20 mM Hepes pH 8, 10 mM MgCl2, 100 mM NaCl, 25 ul/min; EG4-pretreated gold SPRi surface; temperature not given
Settings: protein: recombinant; label: none (immobilized on gold via 5' thiol); 5' overhang 5 nt (T5 spacer) on strand 1, other end blunt
Parameter Measured: Kd (pM)

[
  {
    "Binder": "SH-5T-dsDNA (random 38 bp) (dsDNA, 5' thiol-C6 on strand 1) DNA 1: TTTTTCTAAGCTAGAAGATTACTCCAAGTACATAATCTAAAAT DNA 2: ATTTTAGATTATGTACTTGGAGTAATCTTCTAGCTTAG",
    "Endpoint Value": 490
  }
]

Where these numbers come from: paper PMC3440434
